Values from PubChem BioAssay (NCI)

tested on: RXF 393 renal; experiment: NCI tumour cell line growth inhibition, 48 h
READOUT TYPE: TGI

Answered cases to consult:
MOLECULE | TESTED ON | READOUT TYPE | REPORTED VALUE
O=C1C(Cl)C2(CC(/C=C/c3ccccc3Cl)=NN2c2cccc(S(=O)(=O)O)c2)N1c1nc2ccccc2s1 (stereo not given) | RXF 393 renal | TGI | > 100 µM
CN1CCc2[nH]c3ccccc3c2C1 | RXF 393 renal | TGI | > 100 µM
Cc1nn2c(/C=C3\C(=O)Nc4ccc(Cl)cc43)c(C)nc2s1 | RXF 393 renal | TGI | > 100 µM
CC(=O)OCC1=C(CCC#N)N2C(=O)C(NC(=O)Cc3cccs3)C2S(=O)C1 (stereo not given) | RXF 393 renal | TGI | > 100 µM

In the following, a different molecule is considered.
The molecule identified as `CSc1ccc(C(=C=C=C(c2ccc(SC)s2)c2ccc(SC)s2)c2ccc(SC)s2)s1` registered its TGI at > 10 µM
